Target: recombinant PRL-2 (Homo sapiens)
Construct: 6xHis (N, cleaved yes); made in house; host or cells: E. coli One Shot BL21 Star
Experiment: In vitro phosphatase assay (DiFMUP hydrolysis), PRL-2
Format: biochemical
Details: FDA-approved drug screen; activity compared to DMSO
quantity kind: % Phosphatase Activity (compared to DMSO) PRL-2 (%)

{"columns": ["compound", "system tested", "val"],
 "data": [
  ["COc1cc(C(=O)NC2CCCNC2)cc(OC)c1OC (centres unmarked) [Troxipide]", "recombinant PRL-2 (Homo sapiens)", 110],
  ["Cl.Cl.Cl.O[C@@H](COc1cccc2ncccc12)CN1CCN([C@@H]2c3ccccc3[C@@H]3[C@H](c4ccccc42)C3(F)F)CC1 [Zosuquidar (LY335979) 3HCl]", "recombinant PRL-2 (Homo sapiens)", 98],
  ["CN[C@@H]1[C@H](O)[C@H](NC)[C@H]2O[C@@]3(O)C(=O)C[C@@H](C)O[C@H]3O[C@@H]2[C@H]1O.Cl.Cl [Spectinomycin HCl]", "recombinant PRL-2 (Homo sapiens)", 110],
  ["O=C1O[C@H]([C@@H](O)CO)C([O-])=C1O.[Na+] [Sodium ascorbate]", "recombinant PRL-2 (Homo sapiens)", 71],
  ["O=C(O)CCC(=O)Nc1ccc(S(=O)(=O)Nc2nccs2)cc1 [Succinylsulfathiazole]", "recombinant PRL-2 (Homo sapiens)", 97],
  ["O=S(=O)(O)Oc1ccc(C(c2ccc(OS(=O)(=O)O)cc2)c2ccccn2)cc1 [Sodium Picosulfate]", "recombinant PRL-2 (Homo sapiens)", 110],
  ["COc1ccc(NS(=O)(=O)c2ccc(N)cc2)nn1 [Sulfamethoxypyridazine]", "recombinant PRL-2 (Homo sapiens)", 109],
  ["Cc1cn([C@H]2C=C[C@@H](CO)O2)c(=O)[nH]c1=O [Stavudine (d4T)]", "recombinant PRL-2 (Homo sapiens)", 90]
]}

====

Target: recombinant PRL-2 (Homo sapiens, UniProt Q12974)
Construct: 6xHis (N, cleaved yes); made in house; host or cells: E. coli One Shot BL21 Star
Sequence (Q12974 whole entry): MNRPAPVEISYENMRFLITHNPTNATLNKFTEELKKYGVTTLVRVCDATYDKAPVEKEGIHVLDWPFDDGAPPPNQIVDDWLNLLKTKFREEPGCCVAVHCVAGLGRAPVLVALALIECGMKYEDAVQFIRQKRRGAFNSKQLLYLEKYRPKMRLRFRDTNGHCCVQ
Assay: In vitro phosphatase assay (DiFMUP hydrolysis), PRL-2;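 further: PRL-2 activity read as DiFMUP hydrolysis after 20 min at room temperature with drug, enzyme first pre-reduced at 4 °C for 20 min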
Type: biochemical
Settings: FDA-approved drug screen; compared to DMSO
Counter-ions that a name gives are not always drawn.
The entries below come with measured % Phosphatase Activity (compared to DMSO) PRL-2 values attached.
quantity kind: % Phosphatase Activity (compared to DMSO) PRL-2 (%)

{"columns": ["compound", "val"],
 "data": [
  ["CCc1c2c(nc3ccc(OC(=O)N4CCC(N5CCCCC5)CC4)cc13)-c1cc3c(c(=O)n1C2)COC(=O)[C@]3(O)CC", 5728],
  ["N#CC(c1ccc(Cl)cc1)c1c(Cl)cc(-n2ncc(=O)[nH]c2=O)cc1Cl (stereo not shown)", 112],
  ["CCOc1ccc2ccccc2c1C(=O)N[C@@H]1C(=O)N2[C@@H]1SC(C)(C)[C@@H]2C(=O)O [Nafcillin Sodium]", 108],
  ["NC12CC3CC(CC(C3)C1)C2 [Amantadine HCl]", 127],
  ["Cc1cc(=O)[nH]c(=S)[nH]1", 93],
  ["CCCNCC(O)COc1ccccc1C(=O)CCc1ccccc1 (stereo not shown) [Propafenone HCl]", 114],
  ["CCCN1C[C@H](CSC)C[C@@H]2c3cccc4[nH]cc(c34)C[C@H]21 [Pergolide mesylate]", 119],
  ["C[C@H]1O[C@H](O[C@H]2[C@H](O)[C@@H](O)[C@@H](O[C@H]3[C@H](O)[C@@H](O)C(O)O[C@@H]3CO)O[C@@H]2CO)[C@H](O)[C@@H](O)[C@@H]1N[C@H]1C=C(CO)[C@@H](O)[C@H](O)[C@H]1O (stereo partly shown)", 102],
  ["CC1(C)CCC(c2ccc(Cl)cc2)=C(CN2CCN(c3ccc(C(=O)NS(=O)(=O)c4ccc(N[C@H](CCN5CCOCC5)CSc5ccccc5)c(S(=O)(=O)C(F)(F)F)c4)cc3)CC2)C1", 75],
  ["Oc1c(Cl)cc(Cl)c(Cl)c1Cc1c(O)c(Cl)cc(Cl)c1Cl [Hexachlorophene, reference compound]", -9],
  ["NC(=O)NO [Hydroxyurea]", 113],
  ["N#Cc1ccccc1-c1cc(-c2ccccn2)cn(-c2ccccc2)c1=O", 376],
  ["CCOC(=O)C1=C(C)NC(C)=C(C(=O)OCC)C1c1ccccc1/C=C/C(=O)OC(C)(C)C", 329],
  ["O=C1C2CC3CC1CC(O)(C3)C2", 113],
  ["CC(=O)OC1CN2CCC1CC2 (stereo not shown) [Aceclidine HCl]", 95],
  ["COc1ccccc1OCC(O)CO (stereo not shown)", 92],
  ["Nc1c(CC(=O)[O-])cccc1C(=O)c1ccccc1.O.[Na+] [Amfenac Sodium Monohydrate]", 108],
  ["NC[C@H](O)c1ccc(O)c(O)c1.O.O=C(O)C(O)C(O)C(=O)O [Noradrenaline bitartrate monohydrate]", 120],
  ["NC(=O)C[S@@+]([O-])C(c1ccccc1)c1ccccc1", 90],
  ["CC(C(=O)O)c1ccc(CC2CCCC2=O)cc1 (stereo not shown)", 83],
  ["CC1=CC(=O)c2ccccc2C1=O", 75],
  ["CC12CC3CC(C)(C1)CC(N)(C3)C2 [Memantine HCl]", 107],
  ["Nc1nnc(-c2cccc(Cl)c2Cl)c(N)n1", 110],
  ["CN(CCOc1ccc(CC2SC(=O)NC2=O)cc1)c1ccccn1 (stereo not shown) [Rosiglitazone]", 111],
  ["CC(=O)[C@H]1CC[C@H]2[C@@H]3C=CC4=CC(=O)CC[C@@]4(C)[C@@H]3CC[C@]12C", 98]
]}
